# assayed_target: human CA-IX (Homo sapiens, UniProt Q16790)
# Construct: purchased Acro CA9-H82E3
# protocol_notes: Surface Plasmon Resonance (SPR) binding kinetics to recombinant human CA-IX (Biacore 8K, single-cycle kinetics, 1:1 binding model)
# condition_label: read-out: CAIX KD; Chelated Metal: Lu-175; SPR, 25° C., pH 7.4
pKd: −log10 of the molar value.
Measured pKd, listed per entry.

In the examples that follow, each entry is paired with its recorded pKd.
{"smiles_structure": "NS(=O)(=O)c1nnc(NC(=O)C23CC(c4cn(CCNC(=O)[C@H]5CNCCN5C(=O)[C@H](CCCCNC(=O)CN5CCN(CC(=O)O)CCN(CC(=O)O)CCN(CC(=O)O)CC5)NC(=O)CC[C@H](NC(=O)CCC5CCCCC5)C(=O)O)nn4)(C2)C3)s1.[Lu+3]", "endpoint_label": "pKd", "result": "8.60 to 9.00"}
{"smiles_structure": "CC(CCC(=O)N[C@@H](CC(=O)N[C@@H](Cc1cn([C@@H](CCCCn2cc(C34CCC(C(=O)Nc5nnc(S(N)(=O)=O)s5)(CC3)CC4)nn2)C(=O)NCCOCCOCCNC(=O)CN2CCN(CC(=O)O)CCN(CC(=O)O)CCN(CC(=O)O)CC2)nn1)C(=O)O)C(=O)O)(c1ccc(O)cc1)c1ccc(O)cc1.[Lu+3]", "endpoint_label": "pKd", "result": "> 9.00"}

In: Complete the entry with pKd for "NS(=O)(=O)c1nnc(NC(=O)C23CC(c4cn(CCNC(=O)[C@@H]5CN(C(=O)CN6CCN(CC(=O)O)CCN(CC(=O)O)CCN(CC(=O)O)CC6)CCN5C(=O)CNC(=O)C5(C(=O)O)CCN(C(=O)c6ccc(C7CC7)nn6)CC5)nn4)(C2)C3)s1.[Lu+3]"
Out: 8.00 to 8.60

In: Specify measured pKd for "NS(=O)(=O)c1nnc(NC(=O)C23CC(c4cn(CCNC(=O)[C@@H]5CN(C(=O)CN6CCN(CC(=O)O)CCN(CC(=O)O)CCN(CC(=O)O)CC6)CCN5C(=O)C[C@H](Nc5ncc(C(=O)NCc6ccc(S(F)(F)(F)(F)F)cc6)cn5)C(=O)O)nn4)(C2)C3)s1.[Lu+3]" .
Out: 8.00 to 8.60

----------
Each record here notes measured pKd.
# assayed_target: human CA-IX (Homo sapiens, UniProt Q16790)
# Construct: purchased Acro CA9-H82E3
# protocol_notes: Surface Plasmon Resonance (SPR) binding kinetics to recombinant human CA-IX (Biacore 8K, single-cycle kinetics, 1:1 binding model)
# condition_label: Chelated Metal: Lu-175; SPR, 25° C., pH 7.4; read-out: CAIX KD
pKd: −log10 of the molar value.

See these solved cases before continuing.
{"smiles_structure": "NS(=O)(=O)c1nnc(NC(=O)C23CC(c4cn(CCNC(=O)[C@@H]5CN(C(=O)CN6CCN(CC(=O)O)CCN(CC(=O)O)CCN(CC(=O)O)CC6)CCN5C(=O)C[C@H](Nc5ncc(C(=O)NCc6ccc(C7CC7)cc6)cn5)C(=O)O)nn4)(C2)C3)s1.[Lu+3]", "pKd": "8.60 to 9.00"}
{"smiles_structure": "NS(=O)(=O)c1nnc(NC(=O)C23CC(c4cn(CCNC(=O)[C@@H]5CN(C(=O)CN6CCN(CC(=O)O)CCN(CC(=O)O)CCN(CC(=O)O)CC6)CCN5C(=O)C[C@H](NC(=O)C[C@H](NC(=O)CCCc5ccc(I)cc5)C(=O)O)C(=O)O)nn4)(C2)C3)s1.[Lu+3]", "pKd": "> 9.00"}

Moving on to another compound below.
In: Fill in reported pKd for this entry: "CC(CCC(=O)N[C@@H](CC(=O)N[C@@H](CC(=O)N[C@@H](CCCCn1cc(C23CCC(C(=O)Nc4nnc(S(N)(=O)=O)s4)(CC2)C3)nn1)C(=O)NCC1(C(=O)O)CN(C(=O)CN2CCN(CC(=O)O)CCN(CC(=O)O)CCN(CC(=O)O)CC2)C1)C(=O)O)C(=O)O)(c1ccc(O)cc1)c1ccc(O)cc1.[Lu+3]"
Out: > 9.00
